meta.source: patent US20120237528A1

Reported Whole Cell Binding, Ave % values follow for various binders
- systemName: T1, endogenous human tissue factor on MDA-MB-231 breast cancer cells (human, UniProt P13726 33-295)
- T1 construct: also called native TF; TF
- experimentDescription: FACS on MDA-MB-231 cells
Write down the numeric answer in % and omit the unit.

Some solved cases for reference:
{"columns": ["binder", "experimentalReadout", "reportedResult"],
 "data": [
  ["M1, 10H10 mouse-human chimera (antibody, V domains shown, also called H13/L1; parent chimeric antibody) VH: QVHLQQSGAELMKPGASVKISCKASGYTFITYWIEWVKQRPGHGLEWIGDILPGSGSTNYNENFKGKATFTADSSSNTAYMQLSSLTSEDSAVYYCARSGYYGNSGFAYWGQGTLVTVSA VL: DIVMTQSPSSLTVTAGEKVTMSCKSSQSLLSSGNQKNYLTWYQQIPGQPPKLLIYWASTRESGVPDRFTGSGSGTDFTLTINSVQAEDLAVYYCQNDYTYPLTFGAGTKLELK", "Whole Cell Binding, Ave %", 101],
  ["M11 (antibody, V domains shown, complete MAb; FR4 is its own entry; also called H15/L4) VH: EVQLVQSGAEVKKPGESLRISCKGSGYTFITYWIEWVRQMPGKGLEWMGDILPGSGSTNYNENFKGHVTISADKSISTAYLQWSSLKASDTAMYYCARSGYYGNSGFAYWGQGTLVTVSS VL: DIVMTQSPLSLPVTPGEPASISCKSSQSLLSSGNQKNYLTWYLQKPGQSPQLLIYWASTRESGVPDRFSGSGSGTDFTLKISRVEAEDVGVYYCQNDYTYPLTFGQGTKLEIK", "Whole Cell Binding, Ave %", 114]
]}

Lab note: next binder to report on.
Entry under review: M9 (antibody, V domains shown, complete MAb; FR4 is its own entry; also called H15/L2) VH: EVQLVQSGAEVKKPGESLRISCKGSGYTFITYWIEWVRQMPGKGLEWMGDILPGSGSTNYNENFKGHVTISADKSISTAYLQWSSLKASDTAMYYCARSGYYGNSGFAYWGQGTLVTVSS VL: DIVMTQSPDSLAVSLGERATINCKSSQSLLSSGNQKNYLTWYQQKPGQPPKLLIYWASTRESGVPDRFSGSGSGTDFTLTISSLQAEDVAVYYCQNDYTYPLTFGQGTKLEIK . Reported Whole Cell Binding, Ave %?
107
